ASSAY_METRIC: logP

[[record]]
compound = "CC1(C)SC2C(NC(=O)Cc3ccc(Cl)cc3Cl)C(=O)N2C1C(=O)O (configuration not stated)"
assay_metric = "logP"
result = 3.3

[[record]]
compound = "C#CC(C=CCl)(CC)OC(N)=O (configuration not stated)"
assay_metric = "logP"
result = 1.71

[[record]]
compound = "CCC(C)c1ccccc1OC(=O)N(C)C (configuration not stated)"
assay_metric = "logP"
result = 3.31

[[record]]
compound = "COC(=O)C(C#N)=NNc1cc(C(F)(F)F)ccc1Cl"
assay_metric = "logP"
result = 4.42

[[record]]
compound = "CN1C(=O)OC(c2ccccc2)C1=O (configuration not stated)"
assay_metric = "logP"
result = 1.06

[[record]]
compound = "CCOC(=O)C(=Cc1ccc(Cl)cc1)C(=O)OCC"
assay_metric = "logP"
result = 3.96

[[record]]
compound = "COc1cc(C)n(-c2ccncn2)n1"
assay_metric = "logP"
result = 2.21

[[record]]
compound = "O=NN1CCC(c2ccccc2)CC1"
assay_metric = "logP"
result = 2.59

[[record]]
compound = "CS(=O)(=O)N(c1ccccc1)S(C)(=O)=O"
assay_metric = "logP"
result = 0.62

[[record]]
compound = "COc1cc(C)c(Cc2cnc(N)nc2N)cc1OCc1ccccc1"
assay_metric = "logP"
result = 2.69

[[record]]
compound = "S=C=NCc1ccc2ccccc2c1"
assay_metric = "logP"
result = 4.42

[[record]]
compound = "O=S1(=O)NC(C2CC3C=CC2C3)=Nc2ccccc21 (configuration not stated)"
assay_metric = "logP"
result = 2.06

[[record]]
compound = "CNC(=O)ON=Cc1cccc(Oc2ccccc2)c1"
assay_metric = "logP"
result = 3.12

[[record]]
compound = "Clc1cc2ccccc2nn1"
assay_metric = "logP"
result = 1.57

[[record]]
compound = "O=c1nc(-c2ccccc2)c2cc(Br)ccc2[nH]1"
assay_metric = "logP"
result = 2.71

[[record]]
compound = "CCN(CC)c1cc(N)[n+]([O-])c(N)n1"
assay_metric = "logP"
result = 1.16

[[record]]
compound = "CN(C)C(=O)c1cnc2ccccc2c1"
assay_metric = "logP"
result = 0.99

[[record]]
compound = "S=C=NC(c1ccccc1)c1cccc2ccccc12 (configuration not stated)"
assay_metric = "logP"
result = 6.44

[[record]]
compound = "CSc1nc(C)cc(C)n1"
assay_metric = "logP"
result = 1.86

[[record]]
compound = "C[N+](C)(C)Cc1cccnc1.[Br-]"
assay_metric = "logP"
result = -3.5

[[record]]
compound = "CCc1cccc(OC2OC(CO)C(O)C(O)C2O)c1 (configuration not stated)"
assay_metric = "logP"
result = 0.31

[[record]]
compound = "O=C(Nc1n[nH]c(NC(=O)C(F)(F)F)n1)C(F)(F)F"
assay_metric = "logP"
result = 0.62

[[record]]
compound = "CCCc1nnc(N)o1"
assay_metric = "logP"
result = 0.23

[[record]]
compound = "CN(C)c1nc2ccccc2o1"
assay_metric = "logP"
result = 2.1

[[record]]
compound = "CN(C)C(=O)CCc1ccco1"
assay_metric = "logP"
result = 0.62

[[record]]
compound = "COc1ccccc1C(=O)NN"
assay_metric = "logP"
result = 0.25

[[record]]
compound = "CCCCC1=Nc2ccc(Cl)cc2S(=O)(=O)N1"
assay_metric = "logP"
result = 2.52

[[record]]
compound = "COc1ccccc1C(=O)N1CCN(C)CC1"
assay_metric = "logP"
result = 0.29

[[record]]
compound = "CCc1ccc(O[Si]23OCCN(CCO2)CCO3)cc1"
assay_metric = "logP"
result = 0.56

[[record]]
compound = "O=C1CN=C(c2ccccc2)c2cc([N+](=O)[O-])ccc2N1CC(O)CO (configuration not stated)"
assay_metric = "logP"
result = 0.96

[[record]]
compound = "FC1C(Cl)C(Cl)C(Cl)C(Cl)C1Br (configuration not stated)"
assay_metric = "logP"
result = 3.28

[[record]]
compound = "O=S(=O)(Nc1cccc(Cl)c1)C(F)(F)F"
assay_metric = "logP"
result = 4

[[record]]
compound = "Cc1ccc(C(=O)c2ccncc2)cc1"
assay_metric = "logP"
result = 2.51

[[record]]
compound = "CCCCCCCC[n+]1ccccc1.[I-]"
assay_metric = "logP"
result = -0.84

[[record]]
compound = "NC1CC2CCC1c1ccccc12 (configuration not stated)"
assay_metric = "logP"
result = 2.29

[[record]]
compound = "CCOP(=O)(OCC)Oc1ccc(SC)c(C)c1"
assay_metric = "logP"
result = 3.28

[[record]]
compound = "CCN(CC)CCNC(=O)c1cc(S(C)(=O)=O)ccc1OC"
assay_metric = "logP"
result = 0.9

[[record]]
compound = "N#Cc1c(N)sc2ccccc12"
assay_metric = "logP"
result = 2.17

[[record]]
compound = "CCCCCc1ccc(O)cc1"
assay_metric = "logP"
result = 4.06

[[record]]
compound = "COc1c(C)cc(Cc2cnc(N)nc2N)cc1C"
assay_metric = "logP"
result = 2.19

[[record]]
compound = "CC1=C(C(=O)O)SCCO1"
assay_metric = "logP"
result = 0.04

[[record]]
compound = "CCOC(=O)C(=Cc1ccccc1C)C(C)=O"
assay_metric = "logP"
result = 2.66

[[record]]
compound = "CCC(=O)OCC(=O)[C@@]1(O)[C@@H](C)C[C@H]2[C@@H]3CCC4=CC(=O)C=C[C@]4(C)[C@@]3(F)[C@@H](O)C[C@@]21C"
assay_metric = "logP"
result = 3.06

[[record]]
compound = "O=[N+]([O-])c1ccc(OCCn2ccnc2)cc1"
assay_metric = "logP"
result = 1.69

[[record]]
compound = "COc1ccc(Cc2cnc(N)nc2N)cc1OC"
assay_metric = "logP"
result = 0.97

[[record]]
compound = "CNC1CC2OC1c1ccccc12 (configuration not stated)"
assay_metric = "logP"
result = 0.91

[[record]]
compound = "COc1cc(-n2c(C)cc(=O)n2C)nc(C)n1"
assay_metric = "logP"
result = 0.38

[[record]]
compound = "CNc1ccc(C(=O)OCCN(C)C)cc1"
assay_metric = "logP"
result = 1.95

[[record]]
compound = "CSc1nnc(CCC(C)C)c(=O)n1N"
assay_metric = "logP"
result = 1.85

[[record]]
compound = "CCCCCC[n+]1cc(C)cc(C)c1.[I-]"
assay_metric = "logP"
result = -1.19

[[record]]
compound = "CCC(C)On1c(=O)[nH]c(C)c(Br)c1=O (configuration not stated)"
assay_metric = "logP"
result = 1.11

[[record]]
compound = "CCS(=O)(=O)CCn1ccnc1[N+](=O)[O-]"
assay_metric = "logP"
result = -0.58

[[record]]
compound = "CC(=O)c1ccc2c(c1)C(c1ccccc1F)=NCC(=O)N2"
assay_metric = "logP"
result = 1.75

[[record]]
compound = "CCOC(=O)CN(C(=O)CCl)c1ccccc1"
assay_metric = "logP"
result = 1.6

[[record]]
compound = "Clc1ccc(-c2ccc(Cl)cc2Cl)cc1"
assay_metric = "logP"
result = 5.62

[[record]]
compound = "Clc1ccc(Cl)c(-c2ccccc2)c1Cl"
assay_metric = "logP"
result = 5.67

[[record]]
compound = "CSC(C)=NOC(=O)N(C)SN(C)C(=O)C1CC1"
assay_metric = "logP"
result = 1.7


----------
ASSAY_METRIC: logP

[[record]]
molecule = "CCC(C)NC(=O)C=Cc1ccc(Cl)cc1 (centres undefined)"
assay_metric = "logP"
result = 3.37

[[record]]
molecule = "O=C(O)COc1cccc(SC(F)(F)F)c1"
assay_metric = "logP"
result = 2.86

[[record]]
molecule = "O=C(NCC(O)CO)Nc1ccccc1 (centres undefined)"
assay_metric = "logP"
result = 0.28

[[record]]
molecule = "COc1cc(Cc2cnc(N)nc2N)cc(OC)c1I"
assay_metric = "logP"
result = 2.4

[[record]]
molecule = "NC(=O)N(CCCN(N=O)C(N)=O)N=O"
assay_metric = "logP"
result = -0.3

[[record]]
molecule = "CN(C)CC(=O)NCc1ccccc1"
assay_metric = "logP"
result = 1.11

[[record]]
molecule = "CCc1ccc2c(c1)N=C(C)NS2(=O)=O"
assay_metric = "logP"
result = 1.25

[[record]]
molecule = "COc1ccc(C(=O)c2ccncc2)cc1"
assay_metric = "logP"
result = 1.94

[[record]]
molecule = "CC(C)Oc1ccccc1OC(=O)N(C)C"
assay_metric = "logP"
result = 2.06

[[record]]
molecule = "COc1ccc(CC(C)N)c(OC)c1 (centres undefined)"
assay_metric = "logP"
result = 1.75

[[record]]
molecule = "COC(=O)C1(n2ccnc2[N+](=O)[O-])CC(OC(C)=O)C(NC(C)=O)C(C(OC(C)=O)C(COC(C)=O)OC(C)=O)O1 (centres undefined)"
assay_metric = "logP"
result = 0.41

[[record]]
molecule = "NS(=O)(=O)c1cc2c(cc1[N+](=O)[O-])NCNS2(=O)=O"
assay_metric = "logP"
result = 0.2

[[record]]
molecule = "CC(C)Sc1nnc(C(C)C)c(=O)n1N"
assay_metric = "logP"
result = 2.06

[[record]]
molecule = "COCCN(CCOC)/N=N/c1nc[nH]c1C(N)=O"
assay_metric = "logP"
result = 0.03

[[record]]
molecule = "N#CSc1ccccc1"
assay_metric = "logP"
result = 2.54

[[record]]
molecule = "OCCCn1nnc2ccccc21"
assay_metric = "logP"
result = 0.91

[[record]]
molecule = "O=C1CN=C(c2ccccc2Cl)c2cc(Br)ccc2N1"
assay_metric = "logP"
result = 3.3

[[record]]
molecule = "CCOc1ccc2nc(S(=O)(=O)NC)sc2c1"
assay_metric = "logP"
result = 2.59

[[record]]
molecule = "Cc1cnc(Cc2ccc(O)cc2)s1"
assay_metric = "logP"
result = 2.62

[[record]]
molecule = "NC(=O)NN=CCCc1ccccc1"
assay_metric = "logP"
result = 2.32

[[record]]
molecule = "FC(F)(F)c1nc2c(Br)c(Br)c(Br)cc2[nH]1"
assay_metric = "logP"
result = 4.08

[[record]]
molecule = "CN(C)/N=N/c1ccccc1Cl"
assay_metric = "logP"
result = 3.03

[[record]]
molecule = "CC1NCCN1CCO (centres undefined)"
assay_metric = "logP"
result = -1.93

[[record]]
molecule = "Nc1ccc2c(c1)C(c1ccccc1)=NCC(=O)N2"
assay_metric = "logP"
result = 1

[[record]]
molecule = "COc1ncnc2ccccc12"
assay_metric = "logP"
result = 1.97

[[record]]
molecule = "Cc1ccccc1NC(=O)CN1CCCCC1"
assay_metric = "logP"
result = 2.26

[[record]]
molecule = "CCCCCCCCCCOC(=O)N(C)SN(C)C(=O)ON=C(C)SC"
assay_metric = "logP"
result = 6.2

[[record]]
molecule = "CCOP(=S)(OCC)Oc1ccc(SC)c(Cl)c1"
assay_metric = "logP"
result = 5.06

[[record]]
molecule = "Cc1nnc(-c2ccccn2)o1"
assay_metric = "logP"
result = 0.46

